experimental-details: inhibition of Brca1/Bard1 split-luciferase complementation, confirmation, counter-screen for Mdm2/MdmX interaction inhibitor project, luminescence, single concentration (AID 504668)
measurement-setup: Brca1/Bard1 bimolecular luciferase complementation counterscreen, at 8 µM, stronger effect = higher value
Label rule, in plain words: inhibition of 30% and up is yes (1), under 30% is no (0).

[
  {
    "compound": "O=Cc1[nH]c2ccccc2c1N(C(=O)CCl)c1ccc([N+](=O)[O-])cc1",
    "group-label": "no (0)"
  },
  {
    "compound": "Oc1c(C(c2cccs2)N2CCN(c3ccccc3)CC2)ccc2cccnc12 (stereo not given)",
    "group-label": "no (0)"
  },
  {
    "compound": "COc1ccc(O)c(/C=N/NC(=O)c2ccc(OCc3cccc(Br)c3)cc2)c1",
    "group-label": "yes (1)"
  },
  {
    "compound": "CCCCC(=O)NC(c1ccc(N(C)C)cc1)c1ccc2cccnc2c1O (stereo not given)",
    "group-label": "no (0)"
  },
  {
    "compound": "COc1ccc(-c2nc(CN3CCN(c4cc(C)nc(C)c4)CC3)c(C)o2)c2ccccc12",
    "group-label": "yes (1)"
  },
  {
    "compound": "CC(NC(=O)Nc1nnc(C(F)(F)F)s1)(C(F)(F)F)C(F)(F)F",
    "group-label": "yes (1)"
  },
  {
    "compound": "CC(C)CC(=O)NC(c1cccs1)c1ccc2cccnc2c1O (stereo not given)",
    "group-label": "no (0)"
  },
  {
    "compound": "CCCCNc1c(-c2ccc(OC)c(SC3CCCCC3)c2)nc2ccc(C)cn12",
    "group-label": "no (0)"
  },
  {
    "compound": "Cc1ccc(NC(=O)c2ccccc2NS(=O)(=O)c2ccc(F)cc2)cc1S(=O)(=O)N1CCCCC1",
    "group-label": "no (0)"
  },
  {
    "compound": "CC(=O)NC(c1cc(Cl)c2cccnc2c1O)C1CC1 (stereo not given)",
    "group-label": "yes (1)"
  },
  {
    "compound": "O=C(Nc1nc2ccc(F)cc2s1)C1CCN(S(=O)(=O)c2cc([N+](=O)[O-])ccc2Cl)CC1",
    "group-label": "no (0)"
  },
  {
    "compound": "COc1ccc(N2C(=O)N3[C@H](c4cccc(C)c4)[C@@H]4C(=O)N(Cc5ccccc5)C(=O)[C@@H]4[C@]3(Cc3ccccc3)C2=O)cc1",
    "group-label": "yes (1)"
  }
]

###

experimental-details: cytotoxicity in PPC-1 cells, confirmation, cytotoxicity control for TRAIL apoptosis potentiator project, cell-based, ATP content luminescence (AID 1447);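 further: 0% = DMSO-treated cells and 100% = wells holding medium but no cells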
measurement-setup: PPC-1 viability, ATPlite luminescence, overnight; at 5 µM; stronger effect = higher value
The other results are listed elsewhere or left out. The source made the active and inactive calls.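 How the source made its calls: active means reconfirmed compounds whose average cytotoxicity reaches 50% or more; inactive means the rest.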
In this section we review reported cytotoxicity values for a set of molecules.
measurement-type: cytotoxicity

[
  {
    "molecule": "Cn1c(C(=O)NCCCN2CCN(c3cccc(Cl)c3)CC2)cc2c(=O)n(C)c3ccccc3c21",
    "measurement-type": "cytotoxicity",
    "reported-value": "15% (inactive)"
  },
  {
    "molecule": "O=C(Oc1ccc(-c2nc(-c3ccccn3)no2)cc1)c1ccccc1",
    "measurement-type": "cytotoxicity",
    "reported-value": "44.9% (inactive)"
  },
  {
    "molecule": "Clc1ccc(-c2cc(-c3ccccn3)on2)c(Cl)c1",
    "measurement-type": "cytotoxicity",
    "reported-value": "89.7% (active)"
  },
  {
    "molecule": "Cc1nc2cc(NC(=O)Nc3cccc(F)c3)ccc2n1C",
    "measurement-type": "cytotoxicity",
    "reported-value": "51.2% (active)"
  },
  {
    "molecule": "Cc1nc(-c2ccc(Cl)cc2)sc1C(=O)NN",
    "measurement-type": "cytotoxicity",
    "reported-value": "57.2% (active)"
  },
  {
    "molecule": "Cn1c(=NC(=O)c2cnccn2)sc2ccccc21",
    "measurement-type": "cytotoxicity",
    "reported-value": "50.8% (active)"
  },
  {
    "molecule": "CCOC(=O)c1c(C)[nH]c2c1-c1ccccc1C(=O)C2=O",
    "measurement-type": "cytotoxicity",
    "reported-value": "96.4% (active)"
  },
  {
    "molecule": "COc1cccc(/C=C/c2ccc3ccccc3n2)c1OC(C)=O",
    "measurement-type": "cytotoxicity",
    "reported-value": "74.4% (active)"
  },
  {
    "molecule": "Cc1ccc(NC(=O)CS(=O)CC(=O)N(c2ccccc2)C(C)C(=O)NC2CCCC2)cc1 (centres undefined)",
    "measurement-type": "cytotoxicity",
    "reported-value": "14.8% (inactive)"
  }
]

###

Recorded cytotoxicity for the following compounds
experimental-details: cytotoxicity in PPC-1 cells, confirmation, cytotoxicity control for TRAIL apoptosis potentiator project, cell-based, ATP content luminescence (AID 1447);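 further: 0% = DMSO-treated cells and 100% = wells holding medium but no cells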
measurement-setup: PPC-1 viability, ATPlite luminescence, overnight; at 5 µM; stronger effect = higher value
This is one part of the list. Calls of active or inactive are those of the source.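 How the source made its calls: active means reconfirmed compounds whose average cytotoxicity reaches 50% or more; inactive means the rest.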
measurement-type: cytotoxicity

[
  {
    "smiles-record": "Cc1ccc(-c2cc(C(=O)N/N=C/C=C/c3ccco3)c3ccccc3n2)cc1C",
    "measurement-type": "cytotoxicity",
    "reported-value": "56.4% (active)"
  },
  {
    "smiles-record": "C=CCn1c(C)cc(C2=NNC(=NCC)SC2)c1C",
    "measurement-type": "cytotoxicity",
    "reported-value": "88% (active)"
  },
  {
    "smiles-record": "COc1ccc(-c2cc(C(=O)NCc3ccco3)no2)cc1OC",
    "measurement-type": "cytotoxicity",
    "reported-value": "17.4% (inactive)"
  },
  {
    "smiles-record": "O=C(O)c1ccc(N/N=C/c2cn(-c3ccccc3)nc2-c2cccs2)cc1",
    "measurement-type": "cytotoxicity",
    "reported-value": "85.2% (active)"
  },
  {
    "smiles-record": "Cc1cc2c(=O)n(C)c(SCC(=O)c3cc4ccccc4o3)nc2s1",
    "measurement-type": "cytotoxicity",
    "reported-value": "-5.6% (inactive)"
  },
  {
    "smiles-record": "COc1cc(SC)ccc1C(=O)Nc1nc(C)cs1",
    "measurement-type": "cytotoxicity",
    "reported-value": "95.8% (active)"
  }
]

###

Reported activity is given for each of the following molecules.
experimental-target: Tumor necrosis factor receptor superfamily member 10B (Homo sapiens) (UniProt O14763)
Sequence (O14763 whole entry, looked up): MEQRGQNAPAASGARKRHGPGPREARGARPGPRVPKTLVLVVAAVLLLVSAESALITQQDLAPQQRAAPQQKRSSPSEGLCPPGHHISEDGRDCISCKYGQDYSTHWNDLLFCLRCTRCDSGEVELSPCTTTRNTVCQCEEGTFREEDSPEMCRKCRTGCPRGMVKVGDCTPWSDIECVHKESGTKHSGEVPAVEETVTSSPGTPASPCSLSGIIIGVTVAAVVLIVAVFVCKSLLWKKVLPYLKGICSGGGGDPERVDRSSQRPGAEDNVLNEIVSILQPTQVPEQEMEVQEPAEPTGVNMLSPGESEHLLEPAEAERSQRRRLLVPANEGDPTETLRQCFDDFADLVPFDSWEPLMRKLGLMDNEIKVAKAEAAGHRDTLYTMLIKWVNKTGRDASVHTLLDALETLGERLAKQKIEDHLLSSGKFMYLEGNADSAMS
experimental-details: caspase-8 TRAIL sensitization, hit retest, confirmation, cell-based, NB7+caspase-8, with/without TRAIL, luminescence panel (AID 651596)
measurement-setup: NB7 neuroblastoma + caspase-8, TRAIL sensitization, luminescence viability, with TRAIL, mean of runs, at 10 µM, stronger effect = higher value
measurement-type: activity (%)

[
  {
    "smiles-record": "C/C(=N\\NC(=O)c1ccn(C)n1)c1cccc(NC(=O)c2ccc(C)s2)c1",
    "reported-value": 48.5
  },
  {
    "smiles-record": "Cc1cccc(-c2cc3nc(-c4ccccc4)cc(=O)n3[nH]2)c1",
    "reported-value": 50
  },
  {
    "smiles-record": "COCCNC(=O)c1ccc2c3n(nc2c1)-c1ccccc1CO3",
    "reported-value": 67.6
  },
  {
    "smiles-record": "COc1ccc(C(=O)Nc2nc3ccccc3[nH]2)cc1",
    "reported-value": 96.3
  }
]

###

experimental-target: Sentrin-specific protease 6 (Homo sapiens) (UniProt Q9GZR1)
experimental-details: SENP6 protease inhibitors, confirmation, biochemical, luminescence, single concentration (AID 488915)
measurement-setup: recombinant SENP6, Z-RLRGG-aminoluciferin luminescence; at 12.5 µM
The other results are listed elsewhere or left out. The source made the active and inactive calls.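 The calls were made as follows: active = mean inhibition above about 50% in the one-dose retest (limit read from the data); inactive = the rest.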
Labels: YES for active, NO for inactive

[
  {
    "smiles-record": "COc1ccc(-n2ncc3c(SCC(=O)NNC(C)=O)ncnc32)cc1",
    "group-label": "NO"
  },
  {
    "smiles-record": "COc1ccc(CNC(=O)COc2ccccc2C(=O)c2cnn(-c3ccccc3)c2)cc1OC",
    "group-label": "YES"
  },
  {
    "smiles-record": "CCOC(=O)c1cnc2[nH]c3ccccc3n2c1=O",
    "group-label": "YES"
  },
  {
    "smiles-record": "CC(=O)c1sc(NC(=O)c2ccc(C)cc2)nc1C",
    "group-label": "NO"
  },
  {
    "smiles-record": "C/C(=C\\C(=O)c1ccccc1)Nc1cccc(O)c1",
    "group-label": "NO"
  },
  {
    "smiles-record": "Cc1cc(NC(=O)c2ccc(F)cc2)ccc1NC(=O)c1ccco1",
    "group-label": "YES"
  },
  {
    "smiles-record": "Nc1ccc(-c2nnc(-c3ccccc3)o2)cc1",
    "group-label": "YES"
  },
  {
    "smiles-record": "CCOC(=O)c1sc(NC(=O)c2ccncc2)nc1C",
    "group-label": "YES"
  },
  {
    "smiles-record": "O=c1[nH]c(CCl)nc2cc(-c3ccc(Cl)cc3)sc12",
    "group-label": "NO"
  },
  {
    "smiles-record": "COc1cc(SC)ccc1C(=O)Nc1cc(C)ccn1",
    "group-label": "NO"
  },
  {
    "smiles-record": "Cc1cccc(NS(=O)(=O)c2cccc(C(=O)NNC(=O)c3ccccc3O)c2)c1",
    "group-label": "YES"
  }
]
